Listed compounds paired with reported Ki
# study.target: hCA IX (Homo sapiens, UniProt Q16790)
# experiment.notes: stopped flow CO2 hydrase assay, CA inhibition
# applied.conditions: recombinant enzyme, pH 7.4, 10 min pre-incubation, from 3 different assays
measurement.label: Ki

[[record]]
smiles_text = "NS(=O)(=O)c1ccc(NC(=O)Nc2ccc(NC(=O)Nc3ccc(S(N)(=O)=O)cc3)cc2)cc1"
measurement_label = "Ki"
measured_result = "57.5 nM"

[[record]]
smiles_text = "NS(=O)(=O)c1ccc(CCNC(=O)Nc2ccc(Cc3ccc(NC(=O)NCCc4ccc(S(N)(=O)=O)cc4)cc3)cc2)cc1"
measurement_label = "Ki"
measured_result = "91.9 nM"

[[record]]
smiles_text = "Cc1cc(-c2ccc(NC(=O)Nc3ccc(S(N)(=O)=O)cc3)c(C)c2)ccc1NC(=O)Nc1ccc(S(N)(=O)=O)cc1"
measurement_label = "Ki"
measured_result = "86.4 nM"

[[record]]
smiles_text = "Cc1cc(-c2ccc(NC(=O)Nc3cccc(S(N)(=O)=O)c3)c(C)c2)ccc1NC(=O)Nc1cccc(S(N)(=O)=O)c1"
measurement_label = "Ki"
measured_result = "578 nM"


----------
# study.target: UniProt:O43570
# Sequence (O43570 25-354): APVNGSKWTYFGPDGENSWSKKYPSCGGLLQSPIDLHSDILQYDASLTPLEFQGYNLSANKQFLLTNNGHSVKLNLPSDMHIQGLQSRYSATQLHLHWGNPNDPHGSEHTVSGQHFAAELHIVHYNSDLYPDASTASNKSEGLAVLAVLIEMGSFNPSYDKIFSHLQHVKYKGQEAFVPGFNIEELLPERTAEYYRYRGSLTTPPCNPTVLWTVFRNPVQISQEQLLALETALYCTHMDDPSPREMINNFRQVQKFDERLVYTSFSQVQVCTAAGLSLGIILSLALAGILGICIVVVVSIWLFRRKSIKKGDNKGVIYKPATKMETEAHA
# experiment.notes: stopped flow CO2 hydrase assay, CA inhibition
# applied.conditions: recombinant enzyme, pH 7.4, 10 min pre-incubation, from 3 different assays
pKi: −log10 of the molar value.
Listed compounds paired with reported pKi
measurement.label: pKi

[[record]]
compound = "Cc1ccc(NC(=O)Nc2ccc(S(N)(=O)=O)cc2)cc1NC(=O)Nc1ccc(S(N)(=O)=O)cc1 [Compound 11]"
study_target = "UniProt:O43570"
measured_result = 8.13

[[record]]
compound = "Cc1cc(-c2ccc(NC(=O)Nc3ccc(S(N)(=O)=O)cc3)c(C)c2)ccc1NC(=O)Nc1ccc(S(N)(=O)=O)cc1 [Compound 10]"
study_target = "UniProt:O43570"
measured_result = 7.28

[[record]]
compound = "Cc1ccc(NC(=O)Nc2cccc(S(N)(=O)=O)c2)cc1NC(=O)Nc1cccc(S(N)(=O)=O)c1 [Compound 15]"
study_target = "UniProt:O43570"
measured_result = 7.17

[[record]]
compound = "NS(=O)(=O)c1ccc(CCNC(=O)Nc2ccc(Cc3ccc(NC(=O)NCCc4ccc(S(N)(=O)=O)cc4)cc3)cc2)cc1 [Compound 17]"
study_target = "UniProt:O43570"
measured_result = 7.47

[[record]]
compound = "NS(=O)(=O)c1ccc(NC(=O)Nc2ccc(Cc3ccc(NC(=O)Nc4ccc(S(N)(=O)=O)cc4)cc3)cc2)cc1 [Compound 9]"
study_target = "UniProt:O43570"
measured_result = 6.37

[[record]]
compound = "NS(=O)(=O)c1ccc(NC(=O)Nc2ccc(NC(=O)Nc3ccc(S(N)(=O)=O)cc3)cc2)cc1 [Compound 8]"
study_target = "UniProt:O43570"
measured_result = 7.43

[[record]]
compound = "Cc1ccc(NC(=O)NCCc2ccc(S(N)(=O)=O)cc2)cc1NC(=O)NCCc1ccc(S(N)(=O)=O)cc1 [Compound 19]"
study_target = "UniProt:O43570"
measured_result = 8.30

[[record]]
compound = "NS(=O)(=O)c1cccc(NC(=O)Nc2ccc(NC(=O)Nc3cccc(S(N)(=O)=O)c3)cc2)c1 [Compound 12]"
study_target = "UniProt:O43570"
measured_result = 7.20

[[record]]
compound = "NS(=O)(=O)c1cccc(NC(=O)Nc2ccc(Cc3ccc(NC(=O)Nc4cccc(S(N)(=O)=O)c4)cc3)cc2)c1 [Compound 13]"
study_target = "UniProt:O43570"
measured_result = 7.56

[[record]]
compound = "NS(=O)(=O)c1ccc(CCNC(=O)Nc2ccc(NC(=O)NCCc3ccc(S(N)(=O)=O)cc3)cc2)cc1 [Compound 16]"
study_target = "UniProt:O43570"
measured_result = 7.08

[[record]]
compound = "Cc1cc(-c2ccc(NC(=O)NCCc3ccc(S(N)(=O)=O)cc3)c(C)c2)ccc1NC(=O)NCCc1ccc(S(N)(=O)=O)cc1 [Compound 18]"
study_target = "UniProt:O43570"
measured_result = 7.22

[[record]]
compound = "Cc1cc(-c2ccc(NC(=O)Nc3cccc(S(N)(=O)=O)c3)c(C)c2)ccc1NC(=O)Nc1cccc(S(N)(=O)=O)c1 [Compound 14]"
study_target = "UniProt:O43570"
measured_result = 7.17

